The measured values listed here are drawn from patent US20240293439A1.

assay: NuTide:301 Phase 1 study: pharmacokinetic analysis of NUC-3373 in blood plasma; format: in vivo; details: human, iv, patients with advanced solid tumors, 125-750 mg/m^2, 1:1 mixture of S and R epimers
attribute.measured: half-life (h)
Expressed in h, but write only the number.

For C[C@H](NP(=O)(OC[C@H]1O[C@@H](n2cc(F)c(=O)[nH]c2=O)CC1O)Oc1cccc2ccccc12)C(=O)OCc1ccccc1 (stereo partly shown) [NUC-3373] the compound record lists half-life as 9.7
